Values compiled from PubChem BioAssay.

# study system: Fibroblast growth factor 2 (Homo sapiens) (UniProt P09038)
# Sequence (P09038 whole entry, looked up): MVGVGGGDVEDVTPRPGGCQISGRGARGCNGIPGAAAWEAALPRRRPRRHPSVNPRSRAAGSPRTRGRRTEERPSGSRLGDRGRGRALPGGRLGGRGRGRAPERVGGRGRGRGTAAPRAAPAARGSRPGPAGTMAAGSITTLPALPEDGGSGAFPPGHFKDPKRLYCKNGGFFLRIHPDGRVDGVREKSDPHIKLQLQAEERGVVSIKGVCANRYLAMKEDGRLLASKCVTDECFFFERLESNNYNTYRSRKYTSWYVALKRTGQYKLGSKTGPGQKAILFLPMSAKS
# assay protocol: FGF2 binders on small-molecule microarrays, primary screen, biochemical, small-molecule microarray, 635/667 nm fluorescence (AID 1133)
# setup conditions: small-molecule microarray binding, FGF2, fluorescence 635/667; higher = more signal
Please respond with reported composite z-score for every item in the list.
Numbers only.

Incoming: Query: composite z-score; subject: "CC(=O)NCCCC[C@@H]1NC(=O)[C@H]2C[C@@H](C(=O)NCCCCCC[N+](C)(C)C)[C@@H](c3cccc(OCCO)c3)N2C1=O"
Outgoing: 1.9

Respectfully, I request composite z-score for each entry included below.
1. COc1ccc(C#Cc2ccc3c(c2)[C@]2(C(=O)N3)[C@H](c3ccc(O)cc3)N3[C@H](c4ccccc4)[C@H](c4ccccc4)OC(=O)[C@H]3[C@@H]2C(=O)NC[C@H](O)c2ccccc2)cc1
2. N[C@@H](Cc1ccccc1)Cn1cc(-c2ccccc2)nn1
3. [N-]=[N+]=Nc1ccccc1C[C@]1(C(=O)NCCN2CCOCC2)N=C(c2ccc(OCCCO)cc2)O[C@H]1c1ccccc1
4. COc1ccc(CCNC(=O)[C@@]2(Sc3ccc(C)cc3)CC(=O)N(Cc3ccccc3Cl)[C@@H]2c2ccc(CO)cc2I)cc1
5. CO[C@H]1O[C@H](CO)[C@@H](OC(=O)Nc2ccc(Oc3ccccc3)cc2)[C@H](OC(=O)Nc2ccccc2)[C@H]1OC(=O)Nc1ccccc1
6. CC(=CC1CCCCC1)[C@@H](NC(=O)c1ccc(C(F)(F)F)cc1)c1ccc(-c2ccccc2)cc1
7. C=C(COC)C(=O)CC[C@@H](OC(=O)c1cccnc1)c1ccc(CO)o1
8. O=C1O[C@H](c2ccccc2)[C@H](c2ccccc2)N2[C@H]1[C@@H](C(=O)O)[C@]1(C(=O)Nc3ccc(C#CC4(O)CCCCCC4)cc31)[C@H]2c1ccc(OCCO)cc1

Outgoing:
0.487
-0.311
0.877
0.664
1.61
-0.58
1.46
-0.333

Respectfully, I request composite z-score for each entry included below.
1. O=C1O[C@@H](c2ccccc2)[C@@H](c2ccccc2)N2[C@@H](c3ccc(O)cc3)[C@]3(C(=O)Nc4ccc(C#CC5(O)CCCCCC5)cc43)[C@@H](C(=O)N3CCCCCCC3)[C@H]12
2. CC(c1ccccc1)C(O)C1C=CC2C(=O)NC(=O)C2N1Nc1ccccn1 (centres undefined)
3. COc1ccc(NN2C(C(O)c3ccc(OC)c(OCc4ccccc4)c3)C=CC3C(=O)N(C4CCCCC4)C(=O)C32)cc1 (centres undefined)
4. COc1cc2c(cc1OC)CN(C(=O)[C@@H]1[C@H]3C(=O)O[C@H](c4ccccc4)[C@H](c4ccccc4)N3[C@H](c3ccccc3OCCO)[C@@]13C(=O)Nc1ccc(C#CCNC(N)=O)cc13)CC2
5. CCOC(=O)C1=CC[C@@H](c2ccccc2)N(S(=O)(=O)c2ccc(C)cc2)[C@H]1C(=O)OCC

Outgoing:
1.62
0.458
0.0862
0.748
-0.128

====

# assay protocol: small-molecule binders of probe aLefty1, primary screen, biochemical, small-molecule microarray, 635/667 nm fluorescence (AID 1153);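 note: score merges spot fluorescence with signal-to-noise ratio from the scanned slide images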
# setup conditions: higher = more signal
Classification field: enter 1 for composite z-score values not below -0.06, 0 for values below it.

Example results:
Incoming: Item "C=C[C@H](C)[C@@H](O)c1ccc(O)c2ccccc12" with composite z-score of -0.06 or above?
Outgoing: 1

Incoming: Item "COC(=O)C[C@H]1O[C@]2(C(=O)N(Cc3ccccc3)c3ccc(NC(C)=O)cc32)[C@@H](C)[C@@H]1[Si](C)(C)c1ccc(OC)cc1" with composite z-score of -0.06 or above?
Outgoing: 0

Incoming: Item "NCCCCCCNC(=O)[C@H]1C[C@H]2C(=O)NCC(=O)N2[C@H]1c1cccc(OCCO)c1" with composite z-score of -0.06 or above?
Outgoing: 1

Incoming: Item "C[N+](C)(C)CCCCCCNC(=O)[C@H]1C[C@H]2C(=O)N3CCC[C@H]3C(=O)N2[C@H]1c1ccc(O)cc1" with composite z-score of -0.06 or above?
Outgoing: 1

Incoming: Item "CC(=O)NCCCC[C@@H]1NC(=O)[C@@H]2C[C@H](C(=O)NCCCCN(C)C)[C@H](c3ccc(O)cc3)N2C1=O" with composite z-score of -0.06 or above?
Outgoing: 0

New cases:
Incoming: Item O=C1C2C=CC(C(O)c3cccs3)N(Nc3ccccc3F)C2C(=O)N1c1ccccc1 (centres undefined) with composite z-score of -0.06 or above?
Outgoing: 1

Incoming: Item "C[C@]1(C(=O)NCc2ccccc2)c2ccccc2C(=O)N(Cc2ccc(OC(F)(F)F)cc2)[C@H]1c1ccc(CO)cc1" with composite z-score of -0.06 or above?
Outgoing: 0
